Listing of recorded kon by entry.
TARGET: T1, Recombinant human MMR (R&D systems) (human, UniProt P22897 19-1383)
T1 construct: Antigen of the PE-ELISA and the SPR; also called hMMR; recombinant hMMR
T1 sequence: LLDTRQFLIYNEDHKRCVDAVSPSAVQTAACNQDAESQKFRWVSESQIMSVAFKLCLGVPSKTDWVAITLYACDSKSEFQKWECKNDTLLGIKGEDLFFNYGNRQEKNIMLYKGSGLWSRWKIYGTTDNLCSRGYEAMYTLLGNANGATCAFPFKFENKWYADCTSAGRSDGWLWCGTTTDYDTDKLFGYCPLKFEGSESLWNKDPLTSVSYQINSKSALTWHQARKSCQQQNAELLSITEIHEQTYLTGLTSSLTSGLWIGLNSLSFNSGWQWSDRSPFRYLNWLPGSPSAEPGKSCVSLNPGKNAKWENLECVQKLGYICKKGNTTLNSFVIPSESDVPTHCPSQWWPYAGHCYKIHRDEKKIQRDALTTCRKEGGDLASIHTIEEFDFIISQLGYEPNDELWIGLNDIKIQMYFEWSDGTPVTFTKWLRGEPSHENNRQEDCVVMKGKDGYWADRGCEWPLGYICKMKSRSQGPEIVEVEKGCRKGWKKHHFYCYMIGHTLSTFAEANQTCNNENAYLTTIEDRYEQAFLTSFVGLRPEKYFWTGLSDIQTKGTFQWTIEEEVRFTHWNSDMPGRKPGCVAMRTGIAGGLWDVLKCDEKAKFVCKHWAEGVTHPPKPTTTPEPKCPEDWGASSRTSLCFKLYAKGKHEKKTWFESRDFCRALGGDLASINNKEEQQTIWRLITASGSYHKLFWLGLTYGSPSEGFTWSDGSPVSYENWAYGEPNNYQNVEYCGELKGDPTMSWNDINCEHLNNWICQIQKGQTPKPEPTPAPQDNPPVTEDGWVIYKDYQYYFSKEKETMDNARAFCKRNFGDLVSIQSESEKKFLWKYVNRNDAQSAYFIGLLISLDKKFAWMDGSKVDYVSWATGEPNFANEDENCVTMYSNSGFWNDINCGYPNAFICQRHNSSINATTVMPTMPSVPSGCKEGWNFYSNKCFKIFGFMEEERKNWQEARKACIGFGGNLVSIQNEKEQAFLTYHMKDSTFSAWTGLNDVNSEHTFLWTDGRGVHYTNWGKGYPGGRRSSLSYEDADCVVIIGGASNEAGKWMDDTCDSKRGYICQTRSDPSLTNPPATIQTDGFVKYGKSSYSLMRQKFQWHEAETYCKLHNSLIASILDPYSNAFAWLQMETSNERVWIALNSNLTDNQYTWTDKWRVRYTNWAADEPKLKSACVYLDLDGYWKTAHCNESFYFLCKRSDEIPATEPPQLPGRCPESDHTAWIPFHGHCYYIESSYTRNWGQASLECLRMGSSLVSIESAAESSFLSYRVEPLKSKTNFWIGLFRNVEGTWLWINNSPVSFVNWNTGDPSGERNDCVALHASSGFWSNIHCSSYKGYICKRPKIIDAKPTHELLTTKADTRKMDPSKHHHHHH
ASSAY_NAME: SPR, BIAcore T100; human MMR on CM5 chip, sdAb as analyte
Write the figure, then the unit, nothing else.

Some entries whose results are on file:
{"BINDER": "NbhmMMRm10.79 (VHH, Produced from pMECS with C-terminal HA and 6xHis tag) VHH: QVQLQESGGGLVQPGGSLKLSCAASGSIFSIKTMGWYRQAPGKQRELVAAVSSGGSTNYADSVKGRFTISRDNAKNAVYLQMNSLKPEDTAVYYCNADGVVAWDQPYDNYWGQGTQVTVSS", "ASSAY_RESULT": "16000 M⁻¹ s⁻¹"}
{"BINDER": "NbhMMRm3.1 (VHH, Produced from pMECS with C-terminal HA and 6xHis tag; also called NbhmMMRm3.1) VHH: QVQLQESGGGLVQPGGSLRLSCAASGFTLDYYAIGWFRQAPGKEREGISCISYKGGSTTYADSVKGRFTISKDNAKNTAYLQMNNLKPEDTGIYYCAAGFVCYNYDYWGPGTQVTVSS", "ASSAY_RESULT": "220000 M⁻¹ s⁻¹"}
{"BINDER": "NbhMMRm2.15 (VHH, Produced from pMECS with C-terminal HA and 6xHis tag) VHH: QVQLQESGGGLVQPGESLRLSCKLSGFTLDYYDIGWFRQAPGKEREGVSCISSIGGSANYADSVKGRFTISRDNVKNTVYLQMNSLKPEDTAIYYCAAEAQTPYNDGDCTRASYDYWGQGIQVTVSS", "ASSAY_RESULT": "150000 M⁻¹ s⁻¹"}

Return kon for the following binder: NbhMMRm12.6 (VHH, Produced from pMECS with C-terminal HA and 6xHis tag) VHH: QVQLQESGGGLVQPGGSLRLSCVVSGSFLSINHMGWYRQVSGEQRELVAAITSGGSTNYADSVKGRFTISRDSAKNTVYLQMNSLKPEDTAVYYCNADALTMLPPFDFWGQGTQVTVSS 150000 M⁻¹ s⁻¹
